Below, each entry is listed with its recorded glycan array binding signal (z-score).
Biological target: Gal(b1-4)GlcNAc(b1-3)Gal(b1-4)GlcNAc(b1-3)Gal(b1-4)GlcNAc(b1-3)Gal(b1-4)GlcNAc(b1-3)Gal(b1-4)GlcNAc(b1-2)Man(a1-3)[Gal(b1-4)GlcNAc(b1-3)Gal(b1-4)GlcNAc(b1-3)Gal(b1-4)GlcNAc(b1-3)Gal(b1-4)GlcNAc(b1-3)Gal(b1-4)GlcNAc(b1-2)Man(a1-6)]Man(b1-4)GlcNAc(b1-4)GlcNAc
Experiment: glycan array binding signal (z-score within array); higher = stronger binding
Settings: glycan notation: IUPAC condensed, linker removed
About 410 targets per protein were measured; listed, in parts, are those with the strongest signals and a random draw of the rest.
Kindly provide the number alone.

Please report the recorded glycan array binding signal (z-score) for his-Lectin-24A (Drosophila melanogaster) (protein) MFRLSVLVLNLLLVSHEFSAGTAKIEIQPLPALCNGYCFPTLKPVMEYVAIHQDKWNTCTEILANEARKDQIQLNIQLDALKADVSNIKASQLSKDEKLDRMEREQFAMHESLETINRYLTVKLDRTKLQLEAIKNTMDYMKAQMDGYFSAINGVQCLQPGFEKIGDRYFYIEEDVELNWLDAQAKCRRMGGHLASIKTKQEFDAIVEKLDDSKSYFLGVNENTKTGDFVSAASGKSCLYHEWGPGEPHHNNDQERCVSILRKLMHVGNCTYEKRFICQYGI .
4.07
